// provenance: patent EP4786492A1

# assayed_target: T1, mouse DLL3 on CHO K1-mDLL3 cells (mouse, UniProt O88516 33-490)
# T1 construct: also called mouse DLL3 recombinant cell line
# T1 sequence: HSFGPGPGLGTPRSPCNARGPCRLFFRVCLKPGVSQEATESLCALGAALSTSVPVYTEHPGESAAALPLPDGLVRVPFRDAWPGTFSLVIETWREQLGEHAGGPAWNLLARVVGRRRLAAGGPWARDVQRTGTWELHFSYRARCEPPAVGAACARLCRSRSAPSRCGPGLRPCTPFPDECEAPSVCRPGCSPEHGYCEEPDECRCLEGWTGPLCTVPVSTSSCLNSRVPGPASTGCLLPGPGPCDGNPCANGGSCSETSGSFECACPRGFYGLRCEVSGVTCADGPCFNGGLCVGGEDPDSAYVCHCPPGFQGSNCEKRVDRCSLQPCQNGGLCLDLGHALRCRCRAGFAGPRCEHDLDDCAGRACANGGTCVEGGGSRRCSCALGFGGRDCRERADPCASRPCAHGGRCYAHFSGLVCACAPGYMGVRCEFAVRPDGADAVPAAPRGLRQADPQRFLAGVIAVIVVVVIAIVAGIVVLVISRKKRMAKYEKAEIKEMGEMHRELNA
# test_name: FACS, CHO K1-mDLL3 cells

| binder | binding result |
| --- | --- |
| Hab006VL1VH4-hFc (Fc fusion, humanized mab006, VL-linker-VH-human IgG1 Fc; also called Hab006VL1VL4-hFc; not shown: linker; human IgG1 Fc fragment) scFv (part 1 of 2): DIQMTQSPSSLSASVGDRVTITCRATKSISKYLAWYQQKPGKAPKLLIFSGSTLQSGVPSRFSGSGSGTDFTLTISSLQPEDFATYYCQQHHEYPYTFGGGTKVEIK scFv (part 2 of 2): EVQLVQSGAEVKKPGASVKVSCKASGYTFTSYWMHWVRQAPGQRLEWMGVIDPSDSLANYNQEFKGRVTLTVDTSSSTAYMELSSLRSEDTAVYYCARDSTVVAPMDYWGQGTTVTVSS | binds |
| Hab006VL4VH1-hFc (Fc fusion, humanized mab006, VL-linker-VH-human IgG1 Fc; also called Hab006VL4VL1-hFc; not shown: linker; human IgG1 Fc fragment) scFv (part 1 of 2): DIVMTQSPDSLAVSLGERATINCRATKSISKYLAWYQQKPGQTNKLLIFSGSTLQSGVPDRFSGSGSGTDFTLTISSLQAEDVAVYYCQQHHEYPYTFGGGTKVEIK scFv (part 2 of 2): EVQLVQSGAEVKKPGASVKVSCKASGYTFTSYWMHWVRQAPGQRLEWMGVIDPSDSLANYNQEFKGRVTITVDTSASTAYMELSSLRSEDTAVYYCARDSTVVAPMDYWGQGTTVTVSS | binds |
| Hab015VL4VH1a-hFc (Fc fusion, humanized mab015, VL-linker-VH-human IgG1 Fc; also called Hab015L4H1a; not shown: linker; human IgG1 Fc fragment) scFv (part 1 of 2): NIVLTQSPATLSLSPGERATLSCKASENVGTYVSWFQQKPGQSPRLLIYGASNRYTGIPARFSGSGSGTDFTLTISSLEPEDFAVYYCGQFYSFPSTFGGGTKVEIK scFv (part 2 of 2): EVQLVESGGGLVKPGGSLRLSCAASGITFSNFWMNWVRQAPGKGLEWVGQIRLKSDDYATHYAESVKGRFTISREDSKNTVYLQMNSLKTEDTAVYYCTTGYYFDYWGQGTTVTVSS | binds |
